Biological target: Bcl-2-like protein 10 (Homo sapiens)
Assay: TR3 peptide-Bcl-B binding displacers, biochemical primary FP assay, phenotype converters (AID 1240);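 note: 0% = Bcl-B with tracer peptide and DMSO and 100% = tracer peptide lacking Bcl-B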
Conditions: GST-Bcl-B / FITC-TR3 peptide fluorescence polarization; stronger effect = higher value; compound at 3.75 mg/L
Hit rate of the full screen: of about 50,000 compounds, about 800 (1.6%) showed an effect of 50% or more. This excerpt belongs to a sample that is enriched for strong results.
Below, each entry is listed alongside its reported displacement.
reported_property: displacement (%)

[[record]]
molecule = "CC(C)(C)c1cc(/C=N/Nc2nnc3c(n2)[nH]c2ccccc23)cc(C(C)(C)C)c1O"
observed_measurement = 4.8

[[record]]
molecule = "CC1=C(C(=O)Nc2ccc(Cl)cc2)C(c2ccc([N+](=O)[O-])cc2)NC(=S)N1 (configuration not stated)"
observed_measurement = 4.6

[[record]]
molecule = "COc1ccccc1-c1coc2cc(OC(=O)c3ccc(Cl)cc3Cl)ccc2c1=O"
observed_measurement = 63.9

[[record]]
molecule = "O=C1NC(=S)S/C1=C/c1cn(CCOc2ccc(Br)cc2)c2ccccc12"
observed_measurement = 68.9

[[record]]
molecule = "O=C1c2ccccc2C(=O)c2c(NC(=O)C3CC4CCC3C4)cccc21 (configuration not stated)"
observed_measurement = -7.7

[[record]]
molecule = "O=C(CCN1C(=O)/C(=C/c2ccc(Cl)cc2)SC1=S)Nc1nccs1"
observed_measurement = 14.9

[[record]]
molecule = "COc1cccc(OCCn2cc(/C=C3/SC(=S)NC3=O)c3ccccc32)c1"
observed_measurement = -15.1

[[record]]
molecule = "CCc1cc(C)cc(OCCn2cc(/C=C3/SC(=S)NC3=O)c3ccccc32)c1"
observed_measurement = 78.8

[[record]]
molecule = "O=C(Nc1ccccc1)Nc1nnc(Cc2cccc(Br)c2)s1"
observed_measurement = 1.9

[[record]]
molecule = "O=C(CCN1C(=O)/C(=C/c2cccs2)SC1=S)Nc1ccccn1"
observed_measurement = 126

[[record]]
molecule = "COc1ccc(C2NC(=O)NC(C)=C2C(=O)Nc2cccc(Cl)c2)cc1 (configuration not stated)"
observed_measurement = 11.4

[[record]]
molecule = "CCOC(=O)C1=C(C)NC(=O)/C1=C\\c1cccs1"
observed_measurement = 108

[[record]]
molecule = "CCOc1ccc(N(CC(=O)N2CCOCC2)S(=O)(=O)c2ccc(SC)cc2)cc1"
observed_measurement = -1.3

[[record]]
molecule = "COc1cc(C2C3=C(CC(C)(C)CC3=O)OC3=C2C(=O)CC(C)(C)C3)cc(OC)c1OC(C)=O"
observed_measurement = -1.3

[[record]]
molecule = "CC1=C(C(=O)Nc2ccc(Cl)cc2)C(c2ccc([N+](=O)[O-])cc2)NC(=O)N1 (configuration not stated)"
observed_measurement = 124

[[record]]
molecule = "O=C(CCN1C(=O)/C(=C\\c2cccs2)SC1=S)Nc1nccs1"
observed_measurement = 120

[[record]]
molecule = "O=C(CCCN1C(=O)/C(=C\\c2cccs2)SC1=S)Nc1nc2ccccc2s1"
observed_measurement = 12.7

[[record]]
molecule = "Cc1ccc(/C=C2\\SC(=S)N(CCC(=O)Nc3nccs3)C2=O)cc1"
observed_measurement = 19.4

[[record]]
molecule = "CCOC(=O)C1=C(C)NC(C)=C(C(=O)OCC)C1c1cccs1"
observed_measurement = -5.1

[[record]]
molecule = "O=C1NC(=S)S/C1=C\\c1cn(CCOc2ccccc2F)c2ccccc12"
observed_measurement = -62.3

[[record]]
molecule = "COc1ccc(/C=C2/SC(=S)NC2=O)cc1OCc1ccc([N+](=O)[O-])cc1"
observed_measurement = 76.9

[[record]]
molecule = "COc1ccc(CC(c2nc3ccccc3[nH]2)C(C)c2nc3ccccc3[nH]2)cc1 (configuration not stated)"
observed_measurement = 8

[[record]]
molecule = "CC1=C(C(=O)OCC(F)(F)F)C(c2ccccc2)NC(=O)N1 (configuration not stated)"
observed_measurement = 7.2

[[record]]
molecule = "CCOc1ccc2ccc(OCC)c(/C=C3/SC(=S)NC3=O)c2c1"
observed_measurement = -0.8

[[record]]
molecule = "Oc1c(Cl)cc(Br)cc1/C=N/Nc1nc(N2CCOCC2)nc(N2CCOCC2)n1"
observed_measurement = 9.3

[[record]]
molecule = "CCOC(=O)c1c(-c2ccc(C)cc2)csc1NC(=O)C(C)(C)C"
observed_measurement = 7.5

[[record]]
molecule = "O=C(CCCN1C(=O)/C(=C\\c2cccs2)SC1=S)Nc1ccccn1"
observed_measurement = 13.2

[[record]]
molecule = "Cc1[nH]c2ccccc2c1/C=N/NC(=O)c1cccc([N+](=O)[O-])c1"
observed_measurement = 0.7

[[record]]
molecule = "CCc1cc(C)cc(OCCn2cc(C=C3C(=O)NC(=S)NC3=O)c3ccccc32)c1"
observed_measurement = 14.7

[[record]]
molecule = "Cc1cc(NC(=O)CCN2C(=O)/C(=C/c3ccccc3)SC2=S)no1"
observed_measurement = 5.3

[[record]]
molecule = "CCOc1ccc(/C=C2/SC(=S)NC2=O)cc1Cl"
observed_measurement = 11.7

[[record]]
molecule = "Clc1ccccc1COc1cccc(/C=N/Nc2nc(N3CCOCC3)nc(N3CCOCC3)n2)c1"
observed_measurement = 2.6

[[record]]
molecule = "Cc1cc(NC(=O)CCN2C(=O)/C(=C/c3ccc(F)cc3)SC2=S)no1"
observed_measurement = 19

[[record]]
molecule = "Cc1ccc(/C=C(\\C#N)c2nc(-c3cccc(Br)c3)cs2)o1"
observed_measurement = 164

[[record]]
molecule = "CN(C)c1ccc(NC(=O)c2ccc(Br)cc2)cc1"
observed_measurement = 48.8

[[record]]
molecule = "CCc1cc(C)cc(OCCOc2ccccc2/C=C2/SC(=S)N(C)C2=O)c1"
observed_measurement = 2.3

[[record]]
molecule = "CCc1cc(C)cc(OCCn2cc(/C=C3/SC(=S)N(C)C3=O)c3ccccc32)c1"
observed_measurement = 123

[[record]]
molecule = "CC(C)(C)c1ccc(OCCn2cc(/C=C3/SC(=S)NC3=O)c3ccccc32)cc1"
observed_measurement = 15.2

[[record]]
molecule = "CCC(C)c1ccccc1OCCn1cc(/C=C2/SC(=S)NC2=O)c2ccccc21 (configuration not stated)"
observed_measurement = 128

[[record]]
molecule = "CC(C)(C)C(=O)Nc1cccc(C(=O)NCc2ccc(CNC(=O)c3cccc(NC(=O)C(C)(C)C)c3)cc2)c1"
observed_measurement = 9.9

[[record]]
molecule = "COc1ccc(Cl)cc1C(=O)Nc1ccc(C)cc1C"
observed_measurement = 10.1

[[record]]
molecule = "CCOC(=O)C1=C(O)/C(=C\\c2ccc(OCC)cc2)N=C1C"
observed_measurement = 18.1


src = PubChem BioAssay AID1240
